B1: TMEM59 peptide (residues 268–280), wild type [modified: long spacer (Tds) at the N-terminal end, used for immobilisation; long spacer (Tds) at the N-terminal end, used for immobilisation] [not stated] / GST-HA-ATG16L1(231–607) … (parent)
chain 1: PLPVEQDDDIEVIVDETSDHTEETSPVRAISRAATKRLSQPAGGLLDSITNIFGRRSVSSFPVPQDNVDTHPGSGKEVRVPATALCVFDAHDGEVNAVQFSPGSRLLATGGMDRRVKLWEVFGEKCEFKGSLSGSNAGITSIEFDSAGSYLLAASNDFASRIWTVDDYRLRHTLTGHSGKVLSAKFLLDNARIVSGSHDRTLKLWDLRSKVCIKTVFAGSSCNDIVCTEQCVMSGHFDKKIRFWDIRSESIVREMELLGKITALDLNPERTELLSCSRDDLLKVIDLRTNAIKQTFSAPGFKCGSDWTRVVFSPDGSYVAAGSAEGSLYIWSVLTGKVEKVLSKQHSSSINAVAWSPSGSHVVSVDKGCKAVLWAQY
chain 2: YVPSEKLSIYGDL

Variants of: B1
Test: peptide microarray
Conditions: with GST-HA-ATG16L1(231–607) [human]; ligand 800, 600, 400 nM; parent: 100
measuredQuantity: percent of parent (% WT)
# output: bare number, implied unit % WT

chain 2 Y1G :: 92
chain 2 S8L :: 74
chain 2 V2T :: 31
chain 2 D12P :: 145

For the variant shown here, chain 2 I9Y , give the reported percent of parent.
198

// query: chain 2 L7K
53

// query: chain 2 L13T
5

// query: chain 2 L13K
21

// query: chain 2 V2H
67

// query: chain 2 L7Q
28
